pEC50 for assorted molecules
System: Plasmodium falciparum
Experiment: Antimalarial activity against Plasmodium falciparum 3D7
Type: functional, organism-based
Note on pEC50: it is the negative log10 of concentration, concentration in mol/L.

Examples with their reported pEC50 follow.
{"molecule": "CCN(CC)CCCC(C)Nc1ccnc2cc(Cl)ccc12 (stereo not given) [CHLOROQUINE]", "pEC50": 6.78}
{"molecule": "C[C@@H]1CC[C@H]2[C@@H](C)C(=O)O[C@@H]3O[C@@]4(C)CC[C@@H]1[C@]32OO4 [ARTEMISININ]", "pEC50": 8.27}
{"molecule": "C[C@@H]1CCC2[C@@H](C)[C@H](OC(=O)CCC(=O)NCCNc3ccnc4cc(Cl)ccc34)O[C@@H]3O[C@@]4(C)CC[C@@H]1[C@@]23OO4 (stereo not given in full)", "pEC50": 9.11}
{"molecule": "C#CCCCN(CCNc1ccnc2cc(Cl)ccc12)C(=O)CCC(=O)O[C@@H]1O[C@@H]2O[C@@]3(C)CC[C@H]4[C@H](C)CCC([C@H]1C)[C@@]24OO3 (stereo not given in full)", "pEC50": 9.11}

Would you kindly look at the next entry?
Challenge: # query: pEC50 of entry C#CCCCC(C(=O)NCCOC(=O)CCC(=O)O[C@@H]1O[C@@H]2O[C@@]3(C)CC[C@H]4[C@H](C)CCC([C@H]1C)[C@@]24OO3)c1ccnc2cc(Cl)ccc12 (stereo not given in full)
Response given: 9.11
